- system: T1, nSR100 (Mus musculus, UniProt Q8BKA3)
- T1 construct: host or cells: mouse N2A cells
- T1 sequence (Q8BKA3 1-608): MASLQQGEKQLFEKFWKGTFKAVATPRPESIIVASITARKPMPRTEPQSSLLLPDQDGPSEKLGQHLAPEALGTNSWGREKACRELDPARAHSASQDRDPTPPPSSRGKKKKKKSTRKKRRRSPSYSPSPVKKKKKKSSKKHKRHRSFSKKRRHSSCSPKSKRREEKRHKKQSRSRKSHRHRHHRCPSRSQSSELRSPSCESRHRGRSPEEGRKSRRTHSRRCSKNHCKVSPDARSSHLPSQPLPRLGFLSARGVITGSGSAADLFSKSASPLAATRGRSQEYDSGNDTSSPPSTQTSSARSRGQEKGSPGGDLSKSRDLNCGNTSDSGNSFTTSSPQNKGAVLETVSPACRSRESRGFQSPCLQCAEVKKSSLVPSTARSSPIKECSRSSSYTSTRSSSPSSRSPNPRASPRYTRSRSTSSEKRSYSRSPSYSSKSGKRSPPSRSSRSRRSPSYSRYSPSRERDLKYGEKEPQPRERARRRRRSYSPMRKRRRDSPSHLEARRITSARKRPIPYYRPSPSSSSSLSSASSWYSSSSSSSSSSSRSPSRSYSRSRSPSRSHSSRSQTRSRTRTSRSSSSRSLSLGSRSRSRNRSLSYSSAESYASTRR
- assayComment: AP-MS nSR100 interaction partners from mouse N2A cells (Table 5)
- Type: binding
- conditionsUsed: bait Srrm4

# molecule, AvgP (average of the SAINT scores)
data = [
    ("Cdc37 (protein, UniProt Q61081 1-379, looked up) Hsp90 co-chaperone Cdc37: MVDYSVWDHIEVSDDEDETHPNIDTASLFRWRHQARVERMEQFQKEKEELDRGCRECKRKVAECQRKLKELEVAESDGQVELERLRAEAQQLRKEERSWEQKLEDMRKKEKNMPWNVDTLSKDGFSKSMVNTKPEKAEEDSEEAREQKHKTFVEKYEKQIKHFGMLHRWDDSQKYLSDNVHLVCEETANYLVIWCIDLEVEEKCALMEQVAHQTMVMQFILELAKSLKVDPRACFRQFFTKIKTADHQYMEGFKYELEAFKERVRGRAKLRIEKAMKEYEEEERKKRLGPGGLDPVEVYESLPEELQKCFDVKDVQMLQDAISKMDPTDAKYHMQRCIDSGLWVPNSKSGEAKEGEEAGPGDPLLEAVPKAGNEKDVSA", 1),
    ("Rnps1 (protein, UniProt Q99M28 1-305, looked up) RNA-binding protein with …: MDLSGVKKKSLLGVKENNKKSSTRAPSPTKRKDRSDEKSKDRSKDKGATKESSEKDRGRDKTRKRRSASSGSSSTRSRSSSTSSSGSSTSTGSSSGSSSSSASSRSGSSSTSRSSSSSSSSGSPSPSRRRHDNRRRSRSKSKPPKRDEKERKRRSPSPKPTKVHIGRLTRNVTKDHIMEIFSTYGKIKMIDMPVERMHPHLSKGYAYVEFENPDEAEKALKHMDGGQIDGQEITATAVLAPWPRPPPRRFSPPRRMLPPPPMWRRSPPRMRRRSRSPRRRSPVRRRSRSPGRRRHRSRSSSNSSR", 1),
]

Provenance of the data: patent US10772928B2
